test method notes: growth inhibitors of H69AR lung tumor, primary screen, human, duplicate replicates (AID 580)
protocol conditions: H69AR lung tumor cells viability, ATP luminescence, 72 h; at 10 µM; hits give low values
viability less than 90% is condition met; viability greater than or equal to 90% is condition not met.

Known results for molecules:
O=C1CC2CS(=O)(=O)CC2N1c1ccc(Oc2ccccc2)cc1 (configuration not stated)    condition not met
CC(C(=O)NCc1cccnc1)N1C(=O)c2ccccc2C1=O (configuration not stated)    condition not met
CC(C)(C)n1cnc2cc(NS(=O)(=O)c3ccc(Br)cc3)ccc21    condition met

Quick check: does O=C(Nc1ccc(S(=O)(=O)NC2CCCC2)cc1)c1cnccn1 have viability under 90%? condition not met

Quick check: does CCOC(=O)C(NC(=O)c1ccccc1)(Nc1cc(C)on1)C(F)(F)F (configuration not stated) have viability under 90%? condition not met
